Target: porcine pancreatic lipase (Sus scrofa)
Sequence (P00591 1-450): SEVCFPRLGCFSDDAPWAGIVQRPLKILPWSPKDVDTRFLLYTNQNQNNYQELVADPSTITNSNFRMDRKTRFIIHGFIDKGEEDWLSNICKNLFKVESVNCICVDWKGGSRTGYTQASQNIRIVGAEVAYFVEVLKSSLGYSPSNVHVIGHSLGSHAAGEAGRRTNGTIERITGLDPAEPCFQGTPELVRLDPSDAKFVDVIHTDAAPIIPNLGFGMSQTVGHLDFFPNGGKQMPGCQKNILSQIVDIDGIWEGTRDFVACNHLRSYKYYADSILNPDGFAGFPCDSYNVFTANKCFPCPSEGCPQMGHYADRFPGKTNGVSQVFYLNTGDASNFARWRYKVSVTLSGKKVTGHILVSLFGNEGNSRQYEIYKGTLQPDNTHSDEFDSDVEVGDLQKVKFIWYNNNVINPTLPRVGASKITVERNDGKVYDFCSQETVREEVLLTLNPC
Test: Inhibition kinetics of porcine pancreatic lipase (nonlinear regression, Solver)
Assay type: biochemical
Design: compare it to the effects of the porcine pancreas (type II, EC 3.1.1.3); from tissue; host or cells: porcine pancreas (type II preparation)
Conditions: porcine pancreatic lipase, uncompetitive constant, ± SEM; read-out: Kiu
MEASURED_PROPERTY: Ki (µM)
Field format: number, assumed µM, no unit text.

Please look up its Ki: "O=c1c(O)c(-c2cc(O)c(O)c(O)c2)oc2cc(O)cc(O)c12"
58
